Sequence of the target: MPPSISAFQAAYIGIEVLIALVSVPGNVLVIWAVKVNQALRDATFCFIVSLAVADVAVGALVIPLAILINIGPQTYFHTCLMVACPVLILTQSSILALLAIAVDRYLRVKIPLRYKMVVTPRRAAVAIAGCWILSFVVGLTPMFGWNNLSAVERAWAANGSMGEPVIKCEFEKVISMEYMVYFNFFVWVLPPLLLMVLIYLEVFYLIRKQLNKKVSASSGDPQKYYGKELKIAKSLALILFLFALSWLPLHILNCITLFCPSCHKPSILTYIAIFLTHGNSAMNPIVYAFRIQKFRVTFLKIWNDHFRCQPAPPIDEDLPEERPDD
pKi: −log10 of the molar value.
measurement_type: pKi

Recorded pKi, per entry:
[
  {
    "compound": "CC1C(=O)c2nc(CCCN3N=C(Cl)CCC3=O)[nH]c2N(C)C1=O (configuration not stated)",
    "pKi": 5.06
  },
  {
    "compound": "CCCC1C(=O)c2nc(CCCCN3N=C(Cl)CCC3=O)[nH]c2N(C)C1=O (configuration not stated)",
    "pKi": 6.72
  },
  {
    "compound": "CCCC1C(=O)c2nc(CCN3N=C(Cl)CCC3=O)[nH]c2N(C)C1=O (configuration not stated)",
    "pKi": 6.33
  },
  {
    "compound": "CC1C(=O)c2nc(CCN3N=C(c4ccccc4)CCC3=O)[nH]c2N(C)C1=O (configuration not stated)",
    "pKi": 5.21
  },
  {
    "compound": "CCCC1C(=O)c2nc(CCCN3N=C(c4ccccc4)CCC3=O)[nH]c2N(C)C1=O (configuration not stated)",
    "pKi": 6.09
  }
]

P. CCCC1C(=O)c2nc(CN3N=C(c4ccccc4)CCC3=O)[nH]c2N(C)C1=O (configuration not stated)
Q. CC1C(=O)c2nc(CCCN3N=CCCC3=O)[nH]c2N(C)C1=O (configuration not stated)
input: Which gives the smaller pKi number: P or Q ? Respond with the label that goes with your answer.
output: Q

Value source: ChEMBL document CHEMBL1148458
